- target.of.assay: Integrin alpha-IIb/beta-3 (Homo sapiens, UniProt P05106+P08514)
- Sequence (P05106 27-788 limits assumed): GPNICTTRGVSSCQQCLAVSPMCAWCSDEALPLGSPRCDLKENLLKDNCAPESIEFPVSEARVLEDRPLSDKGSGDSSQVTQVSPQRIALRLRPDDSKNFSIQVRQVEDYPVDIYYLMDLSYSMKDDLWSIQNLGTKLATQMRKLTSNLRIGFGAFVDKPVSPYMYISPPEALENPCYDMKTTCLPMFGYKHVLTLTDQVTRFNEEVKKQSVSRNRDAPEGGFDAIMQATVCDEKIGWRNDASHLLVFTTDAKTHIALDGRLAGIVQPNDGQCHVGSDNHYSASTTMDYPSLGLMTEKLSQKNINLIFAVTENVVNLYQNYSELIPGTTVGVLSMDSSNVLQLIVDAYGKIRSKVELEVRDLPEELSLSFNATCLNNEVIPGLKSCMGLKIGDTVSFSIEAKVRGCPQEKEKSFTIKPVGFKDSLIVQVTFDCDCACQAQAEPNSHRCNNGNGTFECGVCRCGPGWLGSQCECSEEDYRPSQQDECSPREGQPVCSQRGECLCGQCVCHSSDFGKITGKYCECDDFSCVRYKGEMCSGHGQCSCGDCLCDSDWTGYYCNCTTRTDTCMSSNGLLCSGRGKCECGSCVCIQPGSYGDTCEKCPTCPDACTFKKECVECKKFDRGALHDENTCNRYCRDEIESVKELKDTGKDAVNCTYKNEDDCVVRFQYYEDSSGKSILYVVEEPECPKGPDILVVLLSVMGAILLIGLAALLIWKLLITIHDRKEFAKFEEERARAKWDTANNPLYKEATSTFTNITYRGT
- Sequence (P08514 32-887 limits assumed): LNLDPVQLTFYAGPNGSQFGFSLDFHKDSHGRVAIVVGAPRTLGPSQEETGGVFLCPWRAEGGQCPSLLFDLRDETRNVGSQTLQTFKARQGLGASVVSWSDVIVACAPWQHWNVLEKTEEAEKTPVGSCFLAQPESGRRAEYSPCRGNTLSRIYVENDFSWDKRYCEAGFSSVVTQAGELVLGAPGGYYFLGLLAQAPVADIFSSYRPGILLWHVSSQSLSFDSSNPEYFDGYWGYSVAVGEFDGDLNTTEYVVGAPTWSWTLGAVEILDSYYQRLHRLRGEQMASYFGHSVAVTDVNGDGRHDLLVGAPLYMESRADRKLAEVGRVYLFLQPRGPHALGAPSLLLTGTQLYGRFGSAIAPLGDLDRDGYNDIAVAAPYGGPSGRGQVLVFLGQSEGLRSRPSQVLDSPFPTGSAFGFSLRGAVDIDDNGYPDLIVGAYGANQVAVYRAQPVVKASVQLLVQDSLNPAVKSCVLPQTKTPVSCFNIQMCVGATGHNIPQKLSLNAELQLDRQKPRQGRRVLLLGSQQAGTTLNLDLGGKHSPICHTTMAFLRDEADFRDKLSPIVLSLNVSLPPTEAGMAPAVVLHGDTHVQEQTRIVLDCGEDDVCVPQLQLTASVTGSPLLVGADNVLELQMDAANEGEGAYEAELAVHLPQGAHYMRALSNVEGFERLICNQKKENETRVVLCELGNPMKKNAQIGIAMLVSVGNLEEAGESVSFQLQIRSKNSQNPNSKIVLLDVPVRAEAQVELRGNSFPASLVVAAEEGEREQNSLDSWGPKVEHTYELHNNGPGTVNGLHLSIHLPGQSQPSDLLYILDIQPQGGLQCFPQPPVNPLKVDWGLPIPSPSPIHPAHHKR
- Sequence (P08514 891-1039 limits assumed): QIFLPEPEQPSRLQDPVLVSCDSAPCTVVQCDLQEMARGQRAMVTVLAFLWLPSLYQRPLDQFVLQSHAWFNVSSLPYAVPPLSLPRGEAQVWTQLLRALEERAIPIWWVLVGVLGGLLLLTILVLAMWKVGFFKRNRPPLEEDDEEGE
- experiment: Inhibition of biotinylated fibrinogen binding to human GP 2b/3a after 2 hrs by solid-phase competitive displacement assay
Each entry below carries its reported IC50.
Provide the reading as a plain figure in µM.

smiles.entry: N=C(N)c1ccc(OC[C@H]2COc3ccc(N(Cc4ccccc4)C(=O)C(=O)O)cc3O2)cc1
target.of.assay: Integrin alpha-IIb/beta-3 (Homo sapiens, UniProt P05106+P08514)
units.of.measure: µM
IC50: 42.6
--
smiles.entry: N=C(N)c1ccc(OC[C@@H]2COc3ccc(N(Cc4ccccc4)C(=O)C(=O)O)cc3O2)cc1
target.of.assay: Integrin alpha-IIb/beta-3 (Homo sapiens, UniProt P05106+P08514)
units.of.measure: µM
IC50: 17.6
--
smiles.entry: N=C(N)c1ccc(OC[C@H]2COc3cc(N(Cc4ccccc4)C(=O)C(=O)O)ccc3O2)cc1
target.of.assay: Integrin alpha-IIb/beta-3 (Homo sapiens, UniProt P05106+P08514)
units.of.measure: µM
IC50: 0.665

Entry under test: N=C(N)c1ccc(OC[C@@H]2COc3cc(N(Cc4ccccc4)C(=O)C(=O)O)ccc3O2)cc1 . Its IC50 was 1.21
